Tested on: field bindweed
Experiment: Test F preemergence
Format: in vivo, Convolvulus arvensis
Conditions: Preemergence; 125 g ai/ha; scale 0 to 100
Assay metric: Plant response rating, Field Bindweed
Reply with the value as a number alone.

The cases that follow already have their Plant response rating, Field Bindweed on record.
>  <Molecule>
CCOc1cc(C(=O)NCC(F)(F)F)nn1Cc1ccnc(C(F)(F)F)c1 [Compound 104]

>  <Assay metric>
Plant response rating, Field Bindweed

>  <Observed>
95

$$$$
>  <Molecule>
CCOc1cc(C(=O)NC(C)C)nn1Cc1ccnc(C(F)(F)F)c1 [Compound 188]

>  <Assay metric>
Plant response rating, Field Bindweed

>  <Observed>
100

$$$$
>  <Molecule>
CCc1cc(C(=O)NCC(F)(F)F)nn1Cc1ccnc(C(F)(F)F)c1 [Compound 78]

>  <Assay metric>
Plant response rating, Field Bindweed

>  <Observed>
95

$$$$

Pending molecule:
Query: Please respond with reported Plant response rating, Field Bindweed (system field bindweed) for CCNC(=O)c1cc(CCCl)n(Cc2ccnc(C(F)(F)F)c2)n1 [Compound 179] .
Reply: 75

====

Test system: velvetleaf
Test: Test C preemergence
Type: in vivo, Abutilon theophrasti
Conditions: preemergence, 31 g ai/ha; visual rating, scale 0 to 100 (0 no effect, 100 complete control), 13 to 15 days
Description: […]
Label YES when Velvetleaf plant response rating is strictly below 40; otherwise label NO.

>  <Molecule>
CCCc1cc(C(=O)NCC(F)(F)F)nn1Cc1ccnc(C(F)(F)F)c1 [Compound 105]

>  <Discrete label>
NO

$$$$

Query: Please state whether Velvetleaf plant response rating is below 40 for CCOc1cc(C(=O)NC2CC2)nn1Cc1ccnc(OC(F)F)c1 [Compound 133]
Reply: YES

Query: Please state whether Velvetleaf plant response rating is below 40 for CCCc1cc(C(=O)NOCC)nn1Cc1ccnc(C(F)(F)F)c1 [Compound 185]
Reply: YES

Query: Please state whether Velvetleaf plant response rating is below 40 for CCc1cc(C(=O)NC2CC2)nn1Cc1ccnc(OC(F)F)c1 [Compound 98]
Reply: NO

====

Test system: velvetleaf
Assay: Test C preemergence
Assay type: in vivo, Abutilon theophrasti
Details: preemergence, 62 g ai/ha; scale 0 to 100 (0 no effect, 100 complete control), 13 to 15 days
Measured Velvetleaf plant response rating by item

>  <Molecule>
CCc1cc(C(=O)NC(C)C)nn1Cc1ccnc(C(F)(F)F)c1 [Compound 139]

>  <Assay metric>
Velvetleaf plant response rating

>  <Observed>
10

$$$$
>  <Molecule>
CCc1cc(C(=O)NCC2CC2)nn1Cc1ccnc(C(F)(F)F)c1 [Compound 199]

>  <Assay metric>
Velvetleaf plant response rating

>  <Observed>
100

$$$$
>  <Molecule>
CCNC(=O)c1cc(CC)n(Cc2ccnc(C(F)(F)F)c2)n1 [Compound 196]

>  <Assay metric>
Velvetleaf plant response rating

>  <Observed>
100

$$$$
>  <Molecule>
CCNC(=O)c1cc(CC)n(Cc2ccnc(OC(F)F)c2)n1 [Compound 130]

>  <Assay metric>
Velvetleaf plant response rating

>  <Observed>
100

$$$$

Query: Assign Velvetleaf plant response rating to the following record: O=C(NCC(F)(F)F)c1cc(CCCl)n(Cc2ccnc(C(F)(F)F)c2)n1 [Compound 143]
Reply: 98

Query: Assign Velvetleaf plant response rating to the following record: CCc1cc(C(=O)NC2CC2)nn1Cc1cc(C(F)(F)C(F)(F)F)nn1C [Compound 226]
Reply: 80

Query: Assign Velvetleaf plant response rating to the following record: CCOc1cc(C(=O)NC2CC2)nn1Cc1ccnc(OC(F)F)c1 [Compound 133]
Reply: 55
